The origin of these recorded values is PubChem BioAssay.

Each record here notes measured composite z-score.
Biological target: Left-right determination factor 2 (Homo sapiens)
Assay: LEFTY2 binders on small-molecule microarrays, primary screen, biochemical, small-molecule microarray, 635 nm fluorescence scan (AID 1110)
Settings: LEFTY2 binding, higher = more signal
// return a plain number; no unit text

>>> experimental_value("N#Cc1ccc(NN2C(C(O)c3ccc(F)cc3)C=CC3C(=O)N(c4ccccc4)C(=O)C32)cc1 (stereo not given)")
-0.81

Log: Left-right determination factor 2 (Homo sapiens), compound COc1cccc(/C=C/C=O)c1 , composite z-score = 0.402

Assay Left-right determination factor 2 (Homo sapiens), sample CC(=O)NCCCC[C@@H]1NC(=O)[C@H]2C[C@@H](C(=O)NCCCC[N+](C)(C)C)[C@@H](c3cccc(OCCO)c3)N2C1=O , composite z-score read: 1.47

composite z-score value, target or system Left-right determination factor 2 (Homo sapiens), for CCOc1cc(C(O)C2C=CC3C(=O)N(C)C(=O)C3N2Nc2ccccc2)ccc1O (stereo not given) : 0.0031

# lookup: O[C@@H](Cc1ccccc1)[C@@H](/C=C/C1CC1)N(CC#Cc1ccccc1)Cc1cccc(Cl)c1 on Left-right determination factor 2 (Homo sapiens), composite z-score = -1.61

====

Recorded composite z-score by entry
Assay: small-molecule microarray binders of probe aWnt5a, primary screen, biochemical, biotinylated probe, 635/667 nm fluorescence (AID 1113);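 note: score merges 667 nm fluorescence intensity with signal-to-noise per printed feature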
Conditions: higher = more signal
Give your answer as a number; write no unit.

Answered examples (6):
>>> experimental_value("CC(C)C(CO)N1C(=O)[C@@H]2C3C(=O)OCCC/C=C\\[C@H]3OC23C=CCN(C(C)(C)C)C(=O)[C@@H]13 (some centres not stated)")
-0.124
>>> experimental_value("C=C(/C(=C/C[C@H](OC(C)=O)c1cccc(OCCO)c1)c1cnc2ccccc2c1)C(C)C")
-0.118
>>> experimental_value("NC(N)=NCCCn1cc(CNC(=O)[C@@H](N)Cc2ccccc2)nn1")
-0.128
>>> experimental_value("COC(=O)c1c(CC[C@@H](CO)NC(=O)N2CCC[C@H]2Cn2cc(Cc3ccccc3)nn2)oc(C(C)=O)c1C(=O)OC")
-0.0778
>>> experimental_value("OCC1CC(c2ccccc2)=NO1 (configuration not stated)")
-0.0084
>>> experimental_value("COCCOC(=O)N1C(=O)[C@@]2(c3cc(C#Cc4ccc(OC)cc4)ccc31)[C@H](C(=O)Nc1nc3ccccc3s1)[C@H]1C(=O)O[C@H](c3ccccc3)[C@H](c3ccccc3)N1[C@@H]2c1ccc(O)cc1")
0.0559

Query C=CCC(OC(C)=O)[C@@H]1[C@@H](N(Cc2ccc(-c3cccc(C(F)(F)F)c3)o2)C(=O)c2ccc(C)cc2)c2cc(OCCCO)ccc2N1C(=O)c1ccc2ccccc2c1 (some centres not stated) yields composite z-score of 0.0433

====

Test: S. cerevisiae RM11-1a growth modifiers, primary screen, strain RM11-1a, OD600, basal, 24 h (AID 1177);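 note: cultures grown under basal conditions with no added stressor; test concentration not given here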
Conditions: OD600, 24 h, higher = more signal, called active from +8 up or from −8 down
observable: z-score
Answer as a number with no unit attached.

>>> experimental_value("O=C1O[C@H](c2ccccc2)[C@H](c2ccccc2)N2[C@H]1[C@@H](C(=O)N1CCN(c3ncccn3)CC1)[C@]1(C(=O)Nc3ccc(C#CC4(O)CCCCCC4)cc31)[C@H]2c1ccc(OCCO)cc1")
3.34

Sample COC(=O)[C@@]1(Cc2ccc(OC)cc2)[C@@H]2C(=CC(=O)[C@H]2CC(=O)C(=O)N(C)C)CN1C(=O)c1ccccc1 ; z-score observed: 0.625

According to the records, this compound CC(c1ccccc1)C(O)C1C=CC2C(=O)N(c3ccccc3)C(=O)C2N1Nc1ccc([N+](=O)[O-])cc1 (configuration not stated) displays z-score of 0.399

The recorded z-score for entry Cc1ccc(S[C@]2(C(=O)O)CC(=O)N(Cc3ccccc3Cl)[C@@H]2c2ccc(CO)cc2I)cc1 equals -0.78

Lab note: CN(C)C(=O)C1N=C(c2ccc(OCCCO)cc2)N(c2ccccc2)O1 (configuration not stated) gave z-score of 0.353

// field: z-score; key: COC(=O)[C@@]1(Cc2ccccc2)[C@H]2c3cc(C(=O)N(C)C)n(CCc4ccc(O)c(OC)c4)c3C[C@H]2CN1C(=O)c1ccccc1 ; value = 0.194

COC(=O)[C@@]1(Cc2ccccc2)[C@H]2c3cc(C(=O)N(C)C)n(Cc4c(CO)[nH]cc(C)c4=O)c3C[C@H]2CN1C(=O)c1ccccc1 yielded z-score of 1.24

====

Target: Follistatin (Homo sapiens) (UniProt P19883)
Sequence (P19883 whole entry, looked up): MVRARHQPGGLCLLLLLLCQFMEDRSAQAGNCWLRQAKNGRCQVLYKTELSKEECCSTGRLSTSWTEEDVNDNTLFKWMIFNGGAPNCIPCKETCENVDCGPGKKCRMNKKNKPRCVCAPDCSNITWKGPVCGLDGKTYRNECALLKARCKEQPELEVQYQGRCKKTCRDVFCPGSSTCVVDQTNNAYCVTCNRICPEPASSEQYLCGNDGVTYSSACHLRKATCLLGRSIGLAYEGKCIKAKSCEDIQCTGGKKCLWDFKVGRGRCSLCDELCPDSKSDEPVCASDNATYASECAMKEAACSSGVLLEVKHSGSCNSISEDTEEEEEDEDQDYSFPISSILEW
Experiment: follistatin binders on small-molecule microarrays, primary screen, biochemical, small-molecule microarray, 635/667 nm fluorescence (AID 1132)
Conditions: FST binding, 635 nm fluorescence, higher = more signal
# composite z-score values compiled below
Please give only the number in your answer, with no unit.

Worked set:
>>> experimental_value("N#Cc1ccc(NN2C(C(O)c3ccc(F)cc3)C=CC3C(=O)N(c4ccccc4)C(=O)C32)cc1 (centres undefined)")
0.0089
>>> experimental_value("CCCCCCCCCCC(O)C1C=CC2C(=O)N(C)C(=O)C2N1Nc1ccc([N+](=O)[O-])cc1[N+](=O)[O-] (centres undefined)")
0.0686
>>> experimental_value("O=C1C2C=CC(C(O)c3ccc(F)cc3)N(n3cnnc3)C2C(=O)N1Cc1ccccc1 (centres undefined)")
-0.524

Input CCOC(=O)[C@H]1[C@@H]2C(=O)N3CCC[C@H]3[C@H](O[Si](C(C)C)(C(C)C)C(C)C)[C@H]2C=C2CCN(S(=O)(=O)c3ccc(C)cc3)C[C@H]21 . Output composite z-score: 0.727

====

Assay: small-molecule microarray binders of probe aLefty2, primary screen, biochemical, biotinylated probe, 635/667 nm fluorescence (AID 1094);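 note: score merges spot fluorescence near 667 nm with spot signal-to-noise ratio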
Conditions: higher = more signal
Label yes when composite z-score is at or above 0.008; anything below gets no.

>>> class("COCCCNC(=O)[C@]1(CCS(=O)(=O)c2ccccc2)N=C(c2ccc(OCCCO)cc2)O[C@@H]1c1ccccc1CN=[N+]=[N-]")
"yes"
>>> class("CC(=O)c1ccc(C(O)C2C=CC3C(=O)N(c4ccccc4)C(=O)C3N2Nc2ccc(C#N)cc2)cc1 (configuration not stated)")
"no"
>>> class("CCOC(=O)C1=C[C@@H](c2ccccc2)N(S(=O)(=O)c2ccc(C)cc2)[C@H]1c1ccccc1Cl")
"yes"
>>> class("O=C1O[C@H](c2ccccc2)[C@H](c2ccccc2)N2[C@H]1[C@@H](C(=O)N1CCN(c3ncccn3)CC1)[C@]1(C(=O)Nc3ccc(C#CC4(O)CCCCCC4)cc31)[C@H]2c1ccc(OCCO)cc1")
"yes"
>>> class("CCOC(=O)C1=CC[C@@H](c2ccc(OCc3ccccc3)c(OC)c2)N(S(=O)(=O)c2ccc(C)cc2)[C@H]1c1ccc(SC)cc1")
"yes"

--- query ---
## Input Decide: composite z-score of COCCOC(=O)N1C(=O)[C@@]2(c3cc(C#CC4=CCCCC4)ccc31)[C@H](c1ccc(O)cc1)N1[C@H](c3ccccc3)[C@H](c3ccccc3)OC(=O)[C@H]1[C@@H]2C(=O)N1CCN(c2ncccn2)CC1 >= 0.008?
## Output no

====

Listing of recorded z-score by entry.
Biological target: Homeobox protein Hox-A13 (Mus musculus)
Test: inhibitors of HoxA13-DNA binding, primary screen, biochemical, fluorescence polarization, labeled oligonucleotide (AID 1185)
Details: 15 min, higher = more signal, called active from +8 up or from −8 down
The answer should be written as a number, with no unit following it.

>>> experimental_value("COc1ccc([Si](C)(C)[C@@H]2[C@@H](CCO)O[C@]3(C(=O)N(Cc4ccc(N5CCCCC5=O)cc4)c4ccccc43)[C@H]2C)cc1")
-5.03
>>> experimental_value("COC(=O)[C@@]1(Cc2ccc(F)cc2)[C@H]2c3cc(C(=O)N(C)C)n(CCc4ccc(O)c(OC)c4)c3C[C@H]2CN1C(=O)c1ccccc1")
-0.562
>>> experimental_value("CC[C@H]1C2=C3C(CC[C@H]4C(OCc5ccc(F)cc5C(F)(F)F)OC[C@](C)([C@@H]34)N(C(=O)OC(C)(C)C)C2)C(COC)C1COC (stereo partly drawn)")
-1.11
>>> experimental_value("COc1ccc(CN(C2=CC[C@@]3(C(N)=O)C(=O)C(Cl)=C(Cl)C(=O)[C@@]3(C#N)C2)S(=O)(=O)c2ccc(Br)cc2)cc1")
-6.44
>>> experimental_value("COCCOC(=O)N1C(=O)[C@@]2(c3cc(C#CC4=CCCCC4)ccc31)[C@H](c1ccccc1OCCO)N1[C@H](c3ccccc3)[C@H](c3ccccc3)OC(=O)[C@H]1[C@@H]2C(=O)Nc1nc2ccccc2s1")
3.53
>>> experimental_value("CN(C)C(=O)[C@@]1(CCS(=O)(=O)c2ccccc2)N=C(c2ccc(OCCCO)cc2)O[C@H]1c1ccccc1")
-6.87
>>> experimental_value("CCCC[C@@H]1C[C@H]1[C@@H](NC(=O)c1ccccc1)c1ccc(C(F)(F)F)cc1")
0.0892
>>> experimental_value("C=C(/C(=C/C[C@@H](OC(C)=O)c1cccc(OCCO)c1)c1cc(C(=O)OC)ccc1OC)C(C)C")
-5.59
>>> experimental_value("COc1cc2c(cc1OC)CN(C(=O)[C@@H]1[C@H]3C(=O)O[C@H](c4ccccc4)[C@H](c4ccccc4)N3[C@H](c3ccc(OCCO)cc3)[C@@]13C(=O)Nc1ccc(C#CC4(O)CCCCCC4)cc13)CC2")
3.75
>>> experimental_value("C=CCC(OC(C)=O)[C@@H]1[C@@H](N(Cc2cccc3ccccc23)C(=O)Cc2ccc(F)cc2)c2cc(OCCCO)ccc2N1C(=O)c1ccc2ccccc2n1 (stereo partly drawn)")
-1.34

What the record says about CC(C)[Si](C#C[Si](C(C)C)(C(C)C)C(C)C)(O[C@H](C)c1cn([C@H](CO)Cc2ccccc2)nn1)C(C)C : z-score is -0.249

z-score measured on CCOC(=O)C1=CC[C@@H](c2ccccc2C(F)(F)F)N(S(=O)(=O)c2ccc(C)cc2)[C@H]1c1ccc(C#N)cc1 = -0.224

Noted for O=C1O[C@H](c2ccccc2)[C@H](c2ccccc2)N2[C@H]1[C@@H](C(=O)Nc1nc3ccccc3s1)[C@]1(C(=O)Nc3ccc(C#CC4(O)CCCCCC4)cc31)[C@H]2c1ccccc1OCCO : its z-score reads 2.05
